ASSAY METHOD TEXT: Cytotoxicity: destruction of MT-4 cells not infected with HIV, cultured the same way
Type: cell-based
COND: human, 5 days of incubation, concentration at which 50 % of the MT-4 cells were destroyed, read-out: 50% cytotoxic concentration to MT-4 cells
Strictly below 100 µM in CC50 at 120 h: Satisfied. Otherwise: Not satisfied.

{"COMPOUND": "CCOCn1c(Cc2ccccc2)c(CC)c(=O)[nH]c1=O [Compound 427, 6-benzyl-1-ethoxymethyl-5-ethyluracil]", "GROUP LABEL": "Not satisfied"}
{"COMPOUND": "CCOCn1c(Sc2ccccc2)c(CC)c(=O)[nH]c1=S [Compound 313]", "GROUP LABEL": "Satisfied"}
{"COMPOUND": "CC(=O)OCCOCn1c(Sc2ccccc2)c(C)c(=O)[nH]c1=S [Compound 1]", "GROUP LABEL": "Not satisfied"}
{"COMPOUND": "CCOCn1c(Sc2cc(C)cc(C)c2)c(CC)c(=O)[nH]c1=S [Compound 314]", "GROUP LABEL": "Not satisfied"}
{"COMPOUND": "CCCCn1c(-c2ccccc2)c(CC)c(=O)[nH]c1=S [Compound 220, 1-butyl-5-ethyl-6-phenylthiouracil]", "GROUP LABEL": "Satisfied"}
{"COMPOUND": "CCOCn1c(-c2ccccc2)c(CC)c(=O)[nH]c1=S [Compound 215]", "GROUP LABEL": "Not satisfied"}
{"COMPOUND": "CCCOCn1c(Sc2ccccc2)c(C)c(=O)[nH]c1=O [Compound 38]", "GROUP LABEL": "Not satisfied"}
